// provenance: the RNAGym collection of RNA variant scans (doi:10.1093/molbev/msab373)

B1: Azoarcus group I ribozyme (parent)
chain: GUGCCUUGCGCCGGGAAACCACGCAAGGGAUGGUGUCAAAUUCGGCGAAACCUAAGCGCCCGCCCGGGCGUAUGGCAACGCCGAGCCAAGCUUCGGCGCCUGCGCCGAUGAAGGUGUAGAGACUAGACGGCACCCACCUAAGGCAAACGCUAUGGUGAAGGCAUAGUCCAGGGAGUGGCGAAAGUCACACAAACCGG

Variants of: B1
Measurement description: reverse-splicing fitness (ratio to wild type); higher = more active; in vitro selection; Mg2+ level not given
Label rule, in plain words: reverse-splicing fitness of 0.01 and up is label 1, under 0.01 is label 0.

>>> print(df.to_string())
                               mutation_name    label
 0                          C82U A120G C150A  label 0
 1             A111C A120U A145U C150G U176C  label 1
 2  C82A A111C A120C A145G C150U C169G U176C  label 1
 3  C82A A111G A120G A145C C150A C169U U176C  label 1
 4                   A111U A145U C150U C169G  label 1
 5        C82U A111U A120G A145G C150A U176A  label 0
 6              C82G A111C A145U C150G U176G  label 0
 7                   A111U A120C C150A C169G  label 0
 8  C82G A111G A120U A145U C150U C169G U176G  label 0
 9  C82G A111C A120U A145C C150A C169U U176A  label 0
10              C82U A120G A145U C169G U176G  label 0
11              C82U A120C A145U C150U C169U  label 1
12        C82G A111U A145U C150G C169A U176A  label 1
13  C82A A111U A120G A145C C150A C169A U176G  label 0
14  C82U A111G A120U A145U C150U C169A U176C  label 0
15  C82A A111G A120G A145U C150G C169U U176C  label 1
16       A111G A120U A145G C150A C169A U176G  label 0
17              C82U A111U A120G C169A U176A  label 1
18        C82U A111C A120U A145G C150A C169U  label 0
19             A111U A120G C150G C169A U176G  label 0
20             A111G A120C C150G C169U U176C  label 1
21              C82A A111G A145G C150G C169A  label 0
